target: Alpha-bungarotoxin (Bungarus multicinctus); experiment: alpha-bungarotoxin binders on microarray, profiling panel, artefact control for SMM control protein annotation, biochemical, small-molecule microarray, Alexa647 label, 635/667 nm fluorescence (AID 1117); details: alpha-BTX-A647 binding fluorescence, higher = more signal
Quick list: composite z-score per entry.
Measured Quantity: composite z-score

1. CC(CCN1CCCc2nc(C)c(C)cc21)=NO[C@@H](C)c1cn([C@H](CO)Cc2ccccc2)nn1 = 0.117
2. CC(C)=CCCC(C)=CCON=C1[C@H]2CCn3c(=O)n(-c4ccccc4)c(=O)n3[C@H]2[C@H](O)[C@@H]2O[C@H]12 = 0.514
3. O=C1[C@H]2[C@H]3[C@H](O)[C@H](O)CC(=NO[C@@H]4O[C@H](CO)[C@@H](O)[C@H](O)[C@H]4O)[C@@H]3CC[C@H]2C(=O)N1C1CCCCC1 = 0.0069
4. C#CCCCON=C1C[C@@H](O)[C@@H](O)[C@@H]2[C@@H]3C(=O)N([C@@H](C)c4ccccc4)C(=O)[C@@H]3CC[C@@H]12 = 0.46
5. CC(=O)OC[C@H]1O[C@H](CC=NOC(C)CN2CCCc3nc(C)c(C)cc32)C=C[C@@H]1OC(C)=O (some centres not stated) = -0.0213
6. CCOC(=O)[C@H](CC(C)C)NC(=O)CCC1CC(OC(=O)NCCc2ccc(F)cc2)CC2(CCCC(COC(=O)NCc3cccc4ccccc34)O2)O1 (some centres not stated) = 0.0466
7. CC(C)[C@@H](OCc1ccccc1)[C@H](C)C=NO[C@@H](C)c1cn([C@H](CO)Cc2ccccc2)nn1 = -0.0804
